Catalogue of variants with associated abundance fitness
B1: Nuclear receptor subfamily 1 group D member 2, residues 103 to 171; numbered along this chain, Q14995 (parent)
chain: CKVCGDVASGFHYGVHACEGCKGFFRRSIQQNIQYKKCLKNENCSIMRMNRNRCQQCRFKKCLSVGMSR

- Variants of: B1
- assay.info: abundance fitness (aPCA) (normalised: wild type 0, dead -1); higher = more abundant; growth selection in yeast, the domain comes from the species named
- setup.conditions: Homo sapiens
Number only, please.

Consider the reported abundance fitness for these variants:
   mutation_label  observed_result
0            M49I             0.56
1            M49Y            0.128
2            I33Q           -0.553
3            Q55V           -0.425
4            K40S            0.092
5            V65I           -0.308
6            R51M           -0.328
7            I33E           -0.424

Query: Entry under review: L63P . Reported abundance fitness?
Response: -0.789

Query: What does the data say about its abundance fitness? Entry: L63K
Response: -0.8

Query: Endpoint output: abundance fitness of N32G . Value?
Response: -0.074
